system: PPARg:RXRa 270nM:90nM, anti-RXR (NR concentration 270 nM, RXRa partner concentration 90 nM); experiment: PBM binding z-score (relative to random genomic background probes); higher = stronger binding; sequences stand for … in GC…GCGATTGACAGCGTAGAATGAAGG
Each record here notes measured PBM binding z-score.

Please review the entries below; each comes with its answer.
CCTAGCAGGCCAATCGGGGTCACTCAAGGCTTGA: 3.72
ATATGTAGGTTAGGGACATTCAGAAAGTAGGGAA: 2.82
CGAACTAGGTCAAAGGACAGTGAGAGGCGACGTA: 8.86

Now consider the entry below.
q: Would you mind telling me what PBM binding z-score value was observed for TCATATAGGTTAAAGGTGAAAGTCGGTGTGGTAA ?
a: 9.55

###

Each record here notes measured PBM binding z-score.
test system: RARg homodimer (NR concentration 270 nM); assay: PBM binding z-score (relative to random genomic background probes); higher = stronger binding; sequences stand for … in GC…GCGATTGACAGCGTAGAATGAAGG
# answer = number (no unit)

CATACACGGTCAGCTAGGCCAGAGTAGGGACGGC: 2.04
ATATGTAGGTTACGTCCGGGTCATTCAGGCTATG: 2.34
CTAACTAGGTCAAGGTCAAAGTCGGTTTGTGCCA: 6.45
CCCGCTAGGTCATGGTCAGCTAATCTACAGTATG: 4.55
CGTCCAAGGTCAGAGAGGTCATTGAATGCCGAGT: 6.96

q: Would you mind telling me what PBM binding z-score value was observed for ACTAGCAGGTCAAGGGTCACTCAAGATTAGTCCG ?
a: 6.42

q: Also check TCTAGTTGGTCGCGGAGGTCACACACGACGGGTA
a: 3.62

q: Also check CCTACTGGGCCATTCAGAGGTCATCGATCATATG
a: 3.64

###

Each record here notes measured PBM binding z-score.
test system: LXRb:RXRa (NR concentration 270 nM, RXRa partner concentration 90 nM); assay: PBM binding z-score (relative to random genomic background probes); higher = stronger binding; sequences stand for … in GC…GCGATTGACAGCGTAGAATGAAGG
# answer = number (no unit)

q: Would you mind telling me what PBM binding z-score value was observed for AGAATGAGGTTACACGTAGATCAGGGAAGAAAGT ?
a: 1.74

###

system: PPARa:RXRa (NR concentration 270 nM, RXRa partner concentration 90 nM); test: PBM binding z-score (relative to random genomic background probes); higher = stronger binding; sequences stand for … in GC…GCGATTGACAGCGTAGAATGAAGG
Observed property: PBM binding z-score
# answer = number (no unit)

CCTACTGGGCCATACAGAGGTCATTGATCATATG: 3.89

q: Would you mind telling me what PBM binding z-score value was observed for ATATGTAGGTTAGGGTCATTAAGAAAGTAGGGAA ?
a: 5.58

q: Also check CGTCAAAGTTCAACTAAGGTAACGTATAGCACGC
a: 5.23

q: Also check ATATGTAGGTTAGGGTAATTCAGAAAGTAGGGAA
a: 3.31

q: Also check CCTACTGGGCCATTAAGAGGTCATTGATCATATG
a: 3.94

q: Also check CAATGTAGGTTAAGGGGGTCATTCAGTTTGAAAG
a: 6.05
